assay: ATG_Oct_MLP_CIS: Attagene CIS-FACTORIAL HepG2 Assay for human Octamer-Binding Transcription Factor (Oct) (AID 2282993); conditions: HepG2 Attagene cis-factorial Oct reporter, mRNA; actives raise or lower the signal
Calls of active or inactive are those of the source. The calls were made as follows: active = hit-call score of the fitted dose curve at least 0.9, where 1 is the maximum; inactive = score below 0.9.
Labels: active, inactive

• CN(C)C(=O)Nc1cccc(C(F)(F)F)c1 = inactive
• CCCOCC(=Nc1ccc(Cl)cc1C(F)(F)F)n1ccnc1 = inactive
• COc1cccc(C(=O)NN(C(=O)c2cc(C)cc(C)c2)C(C)(C)C)c1C = inactive
• CCCCOC(=O)[C@@H](C)Oc1ccc(Oc2ccc(C#N)cc2F)cc1 = inactive
• CSc1nnc(C(C)(C)C)c(=O)n1N = inactive
• CSC1=N[C@@](C)(c2ccccc2)C(=O)N1Nc1ccccc1 = active
• O=c1ccc(=O)[nH][nH]1 = inactive
• CCOP(=S)(Oc1cnc(C(C)(C)C)nc1)OC(C)C (stereo not given) = active
• FC(F)C(F)(F)OCC(Cn1cncn1)c1ccc(Cl)cc1Cl (stereo not given) = active
• CCOP(=S)(OCC)Oc1ccc([N+](=O)[O-])cc1 = active
• C=C(C)[C@H]1Cc2c(ccc3c2O[C@@H]2COc4cc(OC)c(OC)cc4[C@@H]2C3=O)O1 = active
• CC1(C(=O)Nc2ccc(O)c(Cl)c2Cl)CCCCC1 = active
• CNC(=O)Oc1cccc2c1OC(C)(C)O2 = active
• CCOP(=S)(OCC)OC(Cl)C(Cl)(Cl)Cl (stereo not given) = active
• COP(=O)(OC)SCn1c(=O)oc2cc(Cl)cnc21 = inactive
• O=[N+]([O-])c1cc(C(F)(F)F)c(Cl)c([N+](=O)[O-])c1Nc1ncc(C(F)(F)F)cc1Cl = inactive
• Cc1ccn2nc(S(=O)(=O)Nc3c(F)cccc3F)nc2n1 = inactive
• CCOP(=O)(SC(C)CC)N1CCSC1=O (stereo not given) = inactive
• CCCCN(CC)c1c([N+](=O)[O-])cc(C(F)(F)F)cc1[N+](=O)[O-] = active
• CCOC(=O)CC(SP(=O)(OC)OC)C(=O)OCC (stereo not given) = inactive
• CC[C@H](C)[C@H]1O[C@]2(C=C[C@@H]1C)C[C@@H]1C[C@@H](C/C=C(\C)[C@@H](O[C@H]3C[C@H](OC)[C@@H](O[C@H]4C[C@H](OC)[C@@H](NC)[C@H](C)O4)[C@H](C)O3)[C@@H](C)/C=C/C=C3\CO[C@@H]4[C@H](O)C(C)=C[C@@H](C(=O)O1)[C@]34O)O2 = inactive
• COP(=O)(OC)OC(Br)C(Cl)(Cl)Br (stereo not given) = inactive
• CC(COc1ccc(Oc2ccccc2)cc1)Oc1ccccn1 (stereo not given) = active
• COP(=O)(NC(C)=O)SC (stereo not given) = inactive
• CCCOc1nn(C(=O)NS(=O)(=O)c2ccccc2C(=O)OC)c(=O)n1C = inactive
• CCOP(=S)(OCC)Oc1cc(C)nc(C(C)C)n1 = inactive
• CCc1cccc(CC)c1N(COC)C(=O)CCl = active
• COc1cc(OC)nc(Sc2cccc(Cl)c2C(=O)O)n1 = inactive
• CNc1cnn(-c2cccc(C(F)(F)F)c2)c(=O)c1Cl = active
• CSc1nc(NC(C)C)nc(NC(C)C)n1 = inactive
• CCC(=NOC/C=C/Cl)C1=C(O)CC(C2CCOCC2)CC1=O (stereo not given) = inactive
• CCCSP(=O)(OCC)Oc1ccc(Br)cc1Cl (stereo not given) = active
• C[N+]1(C)CCCCC1 = inactive
• S=C1NCCN1 = inactive
• N#CSCSC#N = inactive
• COc1ccc(C(=CC(=O)N2CCOCC2)c2ccc(Cl)cc2)cc1OC = active
• CN(C)NC(=O)CCC(=O)O = inactive
• CCOP(=O)(NC(C)C)Oc1ccc(SC)c(C)c1 (stereo not given) = active
• CCc1cnc(C2=NC(C)(C(C)C)C(=O)N2)c(C(=O)O)c1 (stereo not given) = inactive
• CC(Oc1cccc(Cl)c1)C(=O)O (stereo not given) = inactive

Provenance of the data: PubChem BioAssay (EPA / NIEHS)
